ASSAY TARGET: human IBAT (Homo sapiens, UniProt Q12908)
ASSAY REMARKS: In vitro assay using Cos 7 cells, transiently expressed human IBAT
Assay type: cell-based
ASSAY CONDITIONS: [3H]-taurocholate 8 μM uptake, 37° C., 60 minutes
OBSERVABLE: pIC50
Reminder that pIC50 means the negative base-10 logarithm of the concentration expressed in mol/L.

See these solved cases before continuing.
[[record]]
molecule = "CCCCC1(CCCC)CS(=O)(=O)c2ccc(N(C)C)cc2C(c2cccc(NC(=S)NCCC[N+](C)(C)Cc3ccccc3)c2)N1.[Br-] (centres unmarked)"
val = 6.77

[[record]]
molecule = "CCCCC1(CCCC)CS(=O)(=O)c2ccc(N(C)C)cc2C(c2cccc(NC(=S)Nc3ccc(C[N+]45CCC(CC4)CC5)c(F)c3)c2)N1 (centres unmarked)"
val = 7.38

[[record]]
molecule = "CCCCC1(CCCC)CS(=O)(=O)c2ccc(N(C)C)cc2C(c2cccc(NC(=S)Nc3c(C)cc(C[N+]45CCC(c6ccccc6)(CC4)CC5)cc3C)c2)N1 (centres unmarked)"
val = 7.40

[[record]]
molecule = "CCCCC1(CCCC)CS(=O)(=O)c2ccc(N(C)C)cc2C(c2cccc(NC(=S)Nc3ccc(C[n+]4cc(C)cc(-c5ccccc5)c4)cc3)c2)N1 (racemic)"
val = 7.08

[[record]]
molecule = "CCCCC1(CCCC)CS(=O)(=O)c2ccc(N(C)C)cc2C(c2cccc(NC(=S)Nc3ccc(C[n+]4ccc(C(C)(C)C)cc4)cc3Cl)c2)N1 (centres unmarked)"
val = 7.54


## Input Any idea what its pIC50 is? The molecule is CCCCC1(CCCC)CS(=O)(=O)c2ccc(N(C)C)cc2C(c2cccc(NC(=S)Nc3ccc(C[n+]4ccc(-c5ccccc5)cc4)c(F)c3)c2)N1 (centres unmarked)
## Output 7.59

## Input Another molecule to check: CCCCC1(CCCC)CS(=O)(=O)c2ccc(N(C)C)cc2C(c2cccc(NC(=S)Nc3ccc(C[n+]4cccc(CCC(=O)OC)c4)cc3)c2)N1.[Br-] (centres unmarked)
## Output 7.39

## Input Do the same for CCCCC1(CCCC)CS(=O)(=O)c2ccc(N(C)C)cc2C(c2cccc(NC(=S)Nc3ccc(C[N+]4(Cc5ccccc5)CCCCC4)cc3)c2)N1 (centres unmarked) please
## Output 7.15

----------
ASSAY TARGET: human IBAT (Homo sapiens)
Sequence (Q12908 1-348): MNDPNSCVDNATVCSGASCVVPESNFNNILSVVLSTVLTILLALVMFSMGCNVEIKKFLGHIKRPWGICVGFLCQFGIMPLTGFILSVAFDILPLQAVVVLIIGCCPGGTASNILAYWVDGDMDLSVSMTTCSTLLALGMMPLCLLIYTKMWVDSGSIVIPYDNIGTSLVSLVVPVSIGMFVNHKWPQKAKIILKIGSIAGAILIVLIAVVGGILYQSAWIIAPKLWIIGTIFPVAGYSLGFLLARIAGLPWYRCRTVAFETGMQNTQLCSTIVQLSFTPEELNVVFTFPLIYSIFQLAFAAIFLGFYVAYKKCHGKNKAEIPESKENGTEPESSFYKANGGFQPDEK
ASSAY REMARKS: In vitro assay using Cos 7 cells, transiently expressed human IBAT
Assay type: cell-based
ASSAY CONDITIONS: [3H]-taurocholate 8 μM uptake, 37° C., 60 minutes
OBSERVABLE: pIC50
A value of pIC50 is the negative decimal logarithm of a concentration given in moles per litre.

Use these answered entries as a reference point.
[[record]]
compound = "CCCCC1(CCCC)CS(=O)(=O)c2ccc(N(C)C)cc2C(c2cccc(NC(=S)Nc3ccc(C[n+]4cccc(F)c4)cc3)c2)N1 (centres unmarked) [EXAMPLE 5416]"
val = 7.11

[[record]]
compound = "CCCCc1ccc[n+](Cc2ccc(NC(=S)Nc3cccc(C4NC(CCCC)(CCCC)CS(=O)(=O)c5ccc(N(C)C)cc54)c3)cc2)c1.[Br-] (centres unmarked) [EXAMPLE 3723]"
val = 7.60

[[record]]
compound = "CCCCC1(CCCC)CS(=O)(=O)c2ccc(N(C)C)cc2C(c2cccc(NC(=S)Nc3ccc(C[N+](C)(C)Cc4cccs4)cc3)c2)N1 (racemic) [EXAMPLE 3449]"
val = 7.26


Consider the record given below.
## Input What value of measured pIC50 is listed for CCCCC1(CCCC)CS(=O)(=O)c2ccc(N(C)C)cc2C(c2cccc(NC(=S)Nc3ccc(C[N+]45CCC(CC4)CC5)c(Cl)c3)c2)N1 (centres unmarked) [EXAMPLE P321] ?
## Output 7.35

----------
ASSAY TARGET: human IBAT (Homo sapiens, UniProt Q12908)
ASSAY REMARKS: In vitro assay using Cos 7 cells, transiently expressed human IBAT
Assay type: cell-based
ASSAY CONDITIONS: [3H]-taurocholate 8 μM uptake, 37° C., 60 minutes
Readings of pIC50 for the listed molecules
// pIC50: -log10(molar conc.)

Some entries whose results are on file:
[[record]]
molecule = "CCCCC1(CCCC)CS(=O)(=O)c2ccc(N(C)C)cc2C(c2cccc(NC(=S)Nc3ccc(C[n+]4ccc(N(C)C)cc4)cc3)c2)N1 (racemic)"
observable = "pIC50"
val = 7.00

[[record]]
molecule = "CCCCC1(CCCC)CS(=O)(=O)c2ccc(N(C)C)cc2C(c2cccc(NC(=S)Nc3ccc(C[n+]4ccc(-c5ccccc5)cc4)cc3F)c2)N1 (stereo not drawn)"
observable = "pIC50"
val = 7.47


Lab note: next molecule to report on.
## Input Requested field: pIC50. Item: CCCCC1(CCCC)CS(=O)(=O)c2ccc(N(C)C)cc2C(c2cccc(NC(=S)Nc3ccc(C[n+]4ccc(C(C)O)cc4)cc3)c2)N1 (racemic)
## Output 7.01

----------
ASSAY TARGET: UniProtKB Q12908
ASSAY REMARKS: In vitro assay using Cos 7 cells, transiently expressed human IBAT
Type: cell-based
ASSAY CONDITIONS: [3H]-taurocholate 8 μM uptake, 37° C., 60 minutes
OBSERVABLE: IC50 (nM)
Lab book: enter the figure in nM, no units written.

Solved cases below.
[[record]]
compound = "CCCCC1(CCCC)CS(=O)(=O)c2ccc(N(C)C)cc2C(c2cccc(NC(=S)Nc3ccc(C[N+]45CCC(CC4)CC5)cc3)c2)N1.[Br-] (racemic)"
assay_target = "UniProtKB Q12908"
val = 37

[[record]]
compound = "CCCCC1(CCCC)CS(=O)(=O)c2ccc(N(C)C)cc2C(c2cccc(NC(=S)Nc3ccc(C[N+]45CCC(CC4)CC5)c(C(F)(F)F)c3)c2)N1 (stereo not drawn)"
assay_target = "UniProtKB Q12908"
val = 37

[[record]]
compound = "CCCCC(CCCC)c1cc[n+](Cc2ccc(NC(=S)Nc3cccc(C4NC(CCCC)(CCCC)CS(=O)(=O)c5ccc(N(C)C)cc54)c3)cc2)cc1 (stereo not drawn)"
assay_target = "UniProtKB Q12908"
val = 89

[[record]]
compound = "CCCCCC[N+](C)(C)Cc1ccc(NC(=S)Nc2cccc(C3NC(CCCC)(CCCC)CS(=O)(=O)c4ccc(N(C)C)cc43)c2)cc1 (stereo not drawn)"
assay_target = "UniProtKB Q12908"
val = 68

[[record]]
compound = "CCCCC1(CCCC)CS(=O)(=O)c2ccc(N(C)C)cc2C(c2cccc(NC(=S)Nc3ccc(C[n+]4ccccc4CCOC(C)C)cc3)c2)N1 (stereo not drawn)"
assay_target = "UniProtKB Q12908"
val = 68


Below: the item to evaluate.
## Input Need IC50, item CCCCC1(CCCC)CS(=O)(=O)c2ccc(N(C)C)cc2C(c2cccc(NC(=S)Nc3ccc(C[N+]45CCC(CC4)CC5)cc3Br)c2)N1 (stereo not drawn)
## Output 62

----------
ASSAY TARGET: human IBAT (Homo sapiens, UniProt Q12908)
ASSAY REMARKS: In vitro assay using Cos 7 cells, transiently expressed human IBAT
Type: cell-based
ASSAY CONDITIONS: [3H]-taurocholate 8 μM uptake, 37° C., 60 minutes
Parameter: IC50. Scope: all listed entries.
Could you write the number and then its unit?

[[record]]
compound = "CCCCC1(CCCC)CS(=O)(=O)c2ccc(N(C)C)cc2C(c2cccc(NC(=S)Nc3c(C)cc(C[n+]4ccc(-c5ccccc5)cc4)cc3C)c2)N1 (centres unmarked) [EXAMPLE P386]"
val = "60 nM"

[[record]]
compound = "CCCCC1(CCCC)CS(=O)(=O)c2ccc(N(C)C)cc2C(c2cccc(NC(=S)Nc3ccc(C[n+]4ccccc4CCC)cc3)c2)N1.[Br-] (centres unmarked) [EXAMPLE 5408]"
val = "32 nM"

[[record]]
compound = "CCCCC1(CCCC)CS(=O)(=O)c2ccc(N(C)C)cc2C(c2cccc(NC(=S)Nc3ccc(C[N+]4(Cc5ccccc5)CCCC(CO)C4)cc3)c2)N1.[Br-] (centres unmarked) [EXAMPLE 3607]"
val = "41 nM"


## Input Fill in: IC50 of CCCCC1(CCCC)CS(=O)(=O)c2ccc(N(C)C)cc2C(c2cccc(NC(=S)Nc3ccc(C[N+]45CCC(CC4)C(O)C5)cc3)c2)N1 (racemic) [EXAMPLE 3697] is ___
## Output 69 nM

## Input Follow-up entry: CCCCC1(CCCC)CS(=O)(=O)c2ccc(N(C)C)cc2C(c2cccc(NC(=S)Nc3ccc(C[N+](C)(C)CCCC)cc3)c2)N1.[Br-] (racemic) [EXAMPLE 3409]
## Output 45 nM

## Input Item: CCCCC1(CCCC)CS(=O)(=O)c2ccc(N(C)C)cc2C(c2cccc(NC(=S)Nc3ccc(C[n+]4c(C)cc(C)cc4C)cc3)c2)N1 (centres unmarked) [EXAMPLE 5409]
## Output 42 nM

## Input Another compound to look at: CCCCC1(CCCC)CS(=O)(=O)c2ccc(N(C)C)cc2C(c2cccc(NC(=S)Nc3ccc(C[n+]4ccc(C(C)(C)C)cc4)c(Br)c3)c2)N1 (centres unmarked) [EXAMPLE P371]
## Output 28 nM

## Input Next record, please: CCCCC1(CCCC)CS(=O)(=O)c2ccc(N(C)C)cc2C(c2cccc(NC(=S)Nc3ccc(C[n+]4cc(O)cc(Cl)c4)cc3)c2)N1 (racemic) [EXAMPLE 5417]
## Output 26 nM

The origin of these recorded values is patent US20120015925A1.
